Values from patent US20260152480A1

Tested on: YAP-TEAD
Assay: Nano luciferase method to detect YAP-TEAD inhibitor activity (293T cells transfected with pGL3B-8×GTiiC-nLuc-CMV-fLuc)
Type: cell-based
Settings: Homo sapiens, HEK-293T; transfected 293T cells, 48 hours incubation; read-out: Nano Luciferas detection (IC50)
pIC50: −log10 of the molar value.
PROPERTY_NAME: pIC50

Please review the entries below; each comes with its answer.
[[record]]
compound = "C=CC(=O)N1CC=C(c2cccnc2Nc2ccc(C(F)(F)F)cc2)C1"
result = "≥ 7.00"

[[record]]
compound = "C=C(C)C(=O)N1CCC(c2cccnc2Nc2ccc(C(F)(F)F)cc2)CC1"
result = "5.30 to 6.00"

[[record]]
compound = "C=CC(=O)N1CCC(c2cccnc2Nc2ccc(S(F)(F)(F)(F)F)cc2)CC1"
result = "≥ 7.00"

[[record]]
compound = "C=CC(=O)N1CCC(c2ccccc2Nc2ccc(C(F)(F)F)cc2)CC1"
result = "≥ 7.00"

[[record]]
compound = "C=CC(=O)N1CCC(c2cccnc2Nc2ccc(C(F)(F)F)cc2)C1 (stereo not drawn)"
result = "6.00 to 7.00"


Incoming: Find the recorded pIC50 belonging to C=CC(=O)N1CCC(c2cccnc2Nc2ccc(C(F)(F)F)cc2)CC1 and report it.
Outgoing: ≥ 7.00

Incoming: Find the recorded pIC50 belonging to C=CC(=O)N1CCC(c2cc(F)cnc2Nc2ccc(C(F)(F)F)cc2)CC1 and report it.
Outgoing: ≥ 7.00

Incoming: Find the recorded pIC50 belonging to C=CC(=O)N1CCC(c2cc(C(F)(F)F)cnc2Oc2ccc(C(F)(F)F)cc2)CC1 and report it.
Outgoing: 6.00 to 7.00

Incoming: Find the recorded pIC50 belonging to C=CC(=O)N1CCC(c2c(F)ccnc2Nc2ccc(C(F)(F)F)cc2)CC1 and report it.
Outgoing: ≥ 7.00

Incoming: Find the recorded pIC50 belonging to C=CC(=O)N1C(C)CC(c2cccnc2Oc2ccc(C(F)(F)F)cc2)CC1C (stereo not drawn) and report it.
Outgoing: ≥ 7.00

Incoming: Find the recorded pIC50 belonging to C=CC(=O)N1CCC(c2cncnc2Nc2ccc(C(F)(F)F)cc2)CC1 and report it.
Outgoing: 6.00 to 7.00

Incoming: Find the recorded pIC50 belonging to C=CC(=O)N1CCC(c2nc(C)c(C)nc2Nc2ccc(C(F)(F)F)cc2)CC1 and report it.
Outgoing: 6.00 to 7.00

Incoming: Find the recorded pIC50 belonging to C=CC(=O)N1CC=C(c2cccnc2Nc2ccc(C)cc2)C1 and report it.
Outgoing: ≥ 7.00

Incoming: Find the recorded pIC50 belonging to C=C(F)C(=O)N1CCC(c2cccnc2Nc2ccc(C(F)(F)F)cc2)CC1 and report it.
Outgoing: 6.00 to 7.00

Incoming: Find the recorded pIC50 belonging to C=CC(=O)N1CCC(c2cc(-c3ccccn3)cnc2Nc2ccc(C(F)(F)F)cc2)CC1 and report it.
Outgoing: 6.00 to 7.00

Incoming: Find the recorded pIC50 belonging to C=CC(=O)N1CCC(c2cccnc2Nc2ccc(C)cc2)CC1 and report it.
Outgoing: ≥ 7.00

Incoming: Find the recorded pIC50 belonging to C=CC(=O)N1CCC(c2c(C)ccnc2Nc2ccc(C(F)(F)F)cc2)CC1 and report it.
Outgoing: ≥ 7.00

Incoming: Find the recorded pIC50 belonging to C=CC(=O)N1CCN(c2cccnc2Nc2ccc(C(F)(F)F)cc2)CC1 and report it.
Outgoing: 6.00 to 7.00
